Measured values drawn from patent US12350277B2 for this set.

test: solubility limit in receptor fluid; assay type: physicochemical; conditions: not told, aqueous with cosolvent or surfactant or cyclodextrin; phosphate-buffered saline pH 7.4 with 0.01 wt % Na azide and 1 wt % Brij 020
quantityName: solubility

# solubility (compound: C[C@@H]1C[C@H]2[C@@H]3C[C@H](F)C4=CC(=O)C=C[C@]4(C)[C@@]3(F)[C@@H](O)C[C@]2(C)[C@@]1(OC(=O)C1C(C)(C)C1(C)C)C(=O)OCC#N [compound of Formula I] ) is ~0.0358 mg/mL
